- Measurement Protocol: Selectivity index, ratio of IC50 for ovine COX1 to IC50 for human recombinant COX2
Observable: Ratio IC50

| Smiles Representation | Ratio IC50 |
| --- | --- |
| O=[N+]([O-])c1ccc(-c2nn(-c3ccccc3)cc2-c2nnc(-c3ccc(Cl)cc3)o2)cc1 | > 83.3 |
| Clc1ccc(-c2nnc(-c3cn(-c4ccccc4)nc3-c3ccccc3)o2)cc1 | > 2.6 |
| c1ccc(-c2nn(-c3ccccc3)cc2-c2nnc(-c3ccncc3)o2)cc1 | > 9 |
| Fc1ccc(-c2nn(-c3ccccc3)cc2-c2nnc(-c3ccc(Cl)cc3)o2)cc1 | > 18.2 |
| COc1ccc(-c2nn(-c3ccccc3)cc2-c2nnc(-c3ccccc3)o2)cc1 | > 1 |

Look at this compound and give its reported Ratio IC50. Clc1ccc(-c2nnc(-c3cn(-c4ccccc4)nc3-c3ccc(Cl)cc3)o2)cc1
> 11.5

Also Cc1ccc(-c2nn(-c3ccccc3)cc2-c2nnc(-c3ccccc3)o2)cc1 ?
> 4

Also Brc1ccc(-c2nn(-c3ccccc3)cc2-c2nnc(-c3ccccc3)o2)cc1 ?
> 1

Also Cc1ccc(-c2nn(-c3ccccc3)cc2-c2nnc(-c3ccc(Cl)cc3)o2)cc1 ?
> 1.7

Also O=[N+]([O-])c1ccc(-c2nn(-c3ccccc3)cc2-c2nnc(-c3ccncc3)o2)cc1 ?
> 200

Also Fc1ccc(-c2nn(-c3ccccc3)cc2-c2nnc(-c3ccncc3)o2)cc1 ?
> 43

Also Clc1ccc(-c2nn(-c3ccccc3)cc2-c2nnc(-c3ccccc3)o2)cc1 ?
> 21

Also Brc1ccc(-c2nn(-c3ccccc3)cc2-c2nnc(-c3ccncc3)o2)cc1 ?
> 2.6

Also COc1ccc(-c2nn(-c3ccccc3)cc2-c2nnc(-c3ccc(Cl)cc3)o2)cc1 ?
> 1.5

Also COc1ccc(-c2nn(-c3ccccc3)cc2-c2nnc(-c3ccncc3)o2)cc1 ?
> 2.4

Also O=[N+]([O-])c1ccc(-c2nn(-c3ccccc3)cc2-c2nnc(-c3ccccc3)o2)cc1 ?
> 222

Also Cc1ccc(-c2nn(-c3ccccc3)cc2-c2nnc(-c3ccncc3)o2)cc1 ?
> 1.9

Also Fc1ccc(-c2nn(-c3ccccc3)cc2-c2nnc(-c3ccccc3)o2)cc1 ?
> 15.4

====

- Target Under Test: Prostaglandin G/H synthase 2 (Homo sapiens, UniProt P35354)
- Sequence (P35354 whole entry): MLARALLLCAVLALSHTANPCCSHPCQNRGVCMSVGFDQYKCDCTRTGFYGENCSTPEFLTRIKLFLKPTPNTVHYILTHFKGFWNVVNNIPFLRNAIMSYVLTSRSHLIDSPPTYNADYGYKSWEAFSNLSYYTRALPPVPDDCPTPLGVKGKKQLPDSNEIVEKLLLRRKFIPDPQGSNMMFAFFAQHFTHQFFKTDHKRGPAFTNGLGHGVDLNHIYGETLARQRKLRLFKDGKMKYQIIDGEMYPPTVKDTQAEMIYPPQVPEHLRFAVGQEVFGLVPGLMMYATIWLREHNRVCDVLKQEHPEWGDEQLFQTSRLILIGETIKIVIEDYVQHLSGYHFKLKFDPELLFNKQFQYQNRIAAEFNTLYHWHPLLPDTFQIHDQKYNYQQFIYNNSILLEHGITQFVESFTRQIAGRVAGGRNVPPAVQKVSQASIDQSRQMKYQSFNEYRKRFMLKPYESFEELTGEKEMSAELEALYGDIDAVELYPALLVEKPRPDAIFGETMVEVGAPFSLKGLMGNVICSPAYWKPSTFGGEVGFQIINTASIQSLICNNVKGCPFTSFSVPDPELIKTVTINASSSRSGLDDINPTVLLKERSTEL
- Measurement Protocol: Inhibition of human recombinant COX2 after 2 mins by EIA
Observable: pIC50
Expect pIC50 as a plain number equal to -log10 of the molar concentration.

| Smiles Representation | Target Under Test | Measured |
| --- | --- | --- |
| Fc1ccc(-c2nn(-c3ccccc3)cc2-c2nnc(-c3ccccc3)o2)cc1 | Prostaglandin G/H synthase 2 (Homo sapiens, UniProt P35354) | 5.19 |

Look at this compound and give its reported pIC50. Clc1ccc(-c2nnc(-c3cn(-c4ccccc4)nc3-c3ccccc3)o2)cc1
4.42

Also Brc1ccc(-c2nn(-c3ccccc3)cc2-c2nnc(-c3ccncc3)o2)cc1 ?
4.41

Also O=[N+]([O-])c1ccc(-c2nn(-c3ccccc3)cc2-c2nnc(-c3ccc(Cl)cc3)o2)cc1 ?
5.92

The measurements presented in this section are drawn from ChEMBL document CHEMBL3259642.
